assay.target: hKCNQ1/MinK (Homo sapiens, UniProt P51787)
test.method.notes: biochemical
Format: biochemical
pIC50: −log10 of the molar value.
quantity.kind: pIC50

structure.smiles: CC1(C)CCC(NC(=O)c2cc3c(Cl)cc(Cl)cc3[nH]2)CC1
quantity.kind: pIC50
observed: 6.15
--
structure.smiles: CC1(C)CCC(NC(=O)c2cc3c(F)cc(F)cc3[nH]2)CC1
quantity.kind: pIC50
observed: 7.24

----------
Recorded pIC50 by entry
assay.target: UniProt Q12809
Sequence (Q12809 whole entry): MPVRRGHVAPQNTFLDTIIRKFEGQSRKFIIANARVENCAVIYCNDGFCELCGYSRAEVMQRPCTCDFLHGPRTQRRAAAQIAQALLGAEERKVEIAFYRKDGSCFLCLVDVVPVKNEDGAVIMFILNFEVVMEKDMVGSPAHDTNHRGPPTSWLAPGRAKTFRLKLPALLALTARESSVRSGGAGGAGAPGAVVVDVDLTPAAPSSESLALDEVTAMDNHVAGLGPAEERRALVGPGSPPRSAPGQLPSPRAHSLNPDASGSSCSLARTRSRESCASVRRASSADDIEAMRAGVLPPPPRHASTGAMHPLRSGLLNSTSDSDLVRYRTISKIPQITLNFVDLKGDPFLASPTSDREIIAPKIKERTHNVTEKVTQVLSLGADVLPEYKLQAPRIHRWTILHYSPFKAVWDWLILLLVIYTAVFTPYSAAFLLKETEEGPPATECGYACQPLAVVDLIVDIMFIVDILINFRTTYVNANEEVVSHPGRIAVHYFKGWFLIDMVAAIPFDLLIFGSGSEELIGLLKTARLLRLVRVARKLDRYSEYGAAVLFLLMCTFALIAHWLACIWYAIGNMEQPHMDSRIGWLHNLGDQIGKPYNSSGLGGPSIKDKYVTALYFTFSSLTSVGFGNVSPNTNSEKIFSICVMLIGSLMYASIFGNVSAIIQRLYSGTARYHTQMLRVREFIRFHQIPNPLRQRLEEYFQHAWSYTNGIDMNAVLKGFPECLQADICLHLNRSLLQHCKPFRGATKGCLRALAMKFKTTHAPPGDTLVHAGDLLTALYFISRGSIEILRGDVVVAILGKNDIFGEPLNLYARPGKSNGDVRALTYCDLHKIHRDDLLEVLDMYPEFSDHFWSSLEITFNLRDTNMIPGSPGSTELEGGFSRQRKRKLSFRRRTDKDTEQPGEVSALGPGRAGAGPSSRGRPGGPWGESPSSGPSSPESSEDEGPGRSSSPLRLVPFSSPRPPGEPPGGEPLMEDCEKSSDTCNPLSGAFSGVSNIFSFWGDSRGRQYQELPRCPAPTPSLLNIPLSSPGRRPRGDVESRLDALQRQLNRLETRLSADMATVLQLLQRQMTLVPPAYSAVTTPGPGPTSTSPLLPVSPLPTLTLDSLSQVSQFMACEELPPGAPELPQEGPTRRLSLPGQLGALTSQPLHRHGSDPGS
test.method.notes: biochemical
conditions: hERG IC50, Table 2
pIC50: −log10 of the molar value.

molecule: CC1(C)CCC(NC(=O)c2cc3c(F)cc(F)cc3[nH]2)CC1 [NITD-349]
pIC50: < 5.00
//
molecule: C[C@@H]1C(NC(=O)c2cc3c(F)cc(F)cc3[nH]2)CC2C[C@@H]1C2(C)C (stereo partly drawn) [JS-2-02]
pIC50: < 5.00
//
molecule: CC1(C)CCC(NC(=O)c2cc3c(Cl)cc(Cl)cc3[nH]2)CC1 [NITD-304]
pIC50: < 5.00

----------
assay.target: UniProt:Q14524
test.method.notes: In vitro assessment of ion channels: hNav1.5 Late
Format: biochemical
conditions: read-out: hNav1.05 Late IC50
pIC50: −log10 of the molar value.
quantity.kind: pIC50

structure.smiles: CC1(C)CCC(NC(=O)c2cc3c(F)cc(F)cc3[nH]2)CC1
assay.target: UniProt:Q14524
limit.operator: <
observed: 5.00

structure.smiles: CC1(C)CCC(NC(=O)c2cc3c(Cl)cc(Cl)cc3[nH]2)CC1
assay.target: UniProt:Q14524
limit.operator: =
observed: 5.19

----------
assay.target: hCav1.2 (Homo sapiens, UniProt Q13936)
test.method.notes: biochemical
conditions: Table 3
pIC50: −log10 of the molar value.
Recorded pIC50 by entry
quantity.kind: pIC50

structure.smiles: C[Si]1(C)CCC(NC(=O)c2cc3c(F)cc(F)cc3[nH]2)CC1
limit.operator: <
observed: 5.00

structure.smiles: CC1(C)CCC(NC(=O)c2cc3c(Cl)cc(Cl)cc3[nH]2)CC1
limit.operator: =
observed: 5.70

structure.smiles: C[Si]1(C)CCC(NC(=O)c2cc3c(Cl)cc(Cl)cc3[nH]2)CC1
limit.operator: <
observed: 5.00

structure.smiles: CC1(C)CCC(NC(=O)c2cc3c(F)cc(F)cc3[nH]2)CC1
limit.operator: =
observed: 5.02

----------
test.method.notes: VERO cell cytotoxicity
Type: cell-based
conditions: African green monkey, VERO cells
Recorded IC50 by entry

compound: C[Si]1(C)CCC(NC(=O)c2cc3c(C(F)(F)F)cc(C(F)(F)F)cc3[nH]2)C1 (centres unmarked)
IC50: > 20 µg/mL
//
compound: C[Si]1(C)CCCC(NC(=O)c2cc3c(C(F)(F)F)cc(C(F)(F)F)cc3[nH]2)CCC1
IC50: 15.4 µg/mL
//
compound: CC(CC[Si](C)(C)C)NC(=O)c1cc2c(Cl)cc(Cl)cc2[nH]1 (centres unmarked)
IC50: 15.4 µg/mL
//
compound: Cc1cc(C(F)(F)F)c2cc(C(=O)NC3CCC[Si](C)(C)CCC3)[nH]c2c1
IC50: > 20 µg/mL
//
compound: C[Si]1(C)CC[C@@H](NC(=O)c2cc3c(Cl)cc(Cl)cc3[nH]2)C1 (single isomer, unassigned) [MPL-399A]
IC50: > 64 µg/mL
//
compound: Cc1cc(Br)cc2[nH]c(C(=O)NC3CC[Si](C)(C)CC3)cc12
IC50: > 20 µg/mL
//
compound: COCCOc1cc(F)cc2[nH]c(C(=O)NC3CC[Si](C)(C)CC3)cc12
IC50: > 20 µg/mL
//
compound: C[Si]1(C)CCC(NC(=O)c2cc3c(F)cc(F)cc3[nH]2)CC1
IC50: > 32 µg/mL

----------
assay.target: hKCNQ1/MinK (Homo sapiens, UniProt P51787)
test.method.notes: biochemical
Format: biochemical
conditions: Table 3

structure.smiles: C[Si]1(C)CCC(NC(=O)c2cc3c(Cl)cc(Cl)cc3[nH]2)CC1
unit.info: µM
IC50: 2.71
//
structure.smiles: C[Si]1(C)CCC(NC(=O)c2cc3c(F)cc(F)cc3[nH]2)CC1
unit.info: µM
IC50: 7.56

----------
assay.target: UniProt:Q14524
test.method.notes: In vitro assessment of ion channels: hNav1.5 Late
Type: biochemical
conditions: Table 2; read-out: hNav1.05 Late IC50

compound: C[C@@H]1C(NC(=O)c2cc3c(F)cc(F)cc3[nH]2)CC2C[C@@H]1C2(C)C (stereo partly shown)
assay.target: UniProt:Q14524
IC50: > 10 µM

----------
assay.target: UniProt Q14524
test.method.notes: In vitro assessment of ion channels: hNav1.5 Late
Type: biochemical
conditions: Table 3; read-out: hNav1.5 Late IC50
Recorded IC50 by entry
quantity.kind: IC50

compound: C[Si]1(C)CCC(NC(=O)c2cc3c(Cl)cc(Cl)cc3[nH]2)CC1 [MPL-203]
quantity.kind: IC50
observed: > 10 µM

compound: C[Si]1(C)CCC(NC(=O)c2cc3c(F)cc(F)cc3[nH]2)CC1 [MPL-204]
quantity.kind: IC50
observed: > 10 µM

----------
Recorded pIC50 by entry
assay.target: hNav1.5 Peak (Homo sapiens, UniProt Q14524)
test.method.notes: In vitro assessment of ion channels: hNav1.5 Peak
Format: biochemical
pIC50: −log10 of the molar value.
quantity.kind: pIC50

structure.smiles: CC1(C)CCC(NC(=O)c2cc3c(F)cc(F)cc3[nH]2)CC1
assay.target: hNav1.5 Peak (Homo sapiens, UniProt Q14524)
observed: < 5.00
--
structure.smiles: CC1(C)CCC(NC(=O)c2cc3c(Cl)cc(Cl)cc3[nH]2)CC1
assay.target: hNav1.5 Peak (Homo sapiens, UniProt Q14524)
observed: < 5.00

----------
test.method.notes: QTc (QTcV) prolongation in dogs after oral dosing, with plasma level at 1 hr
conditions: dog, plasma, po, 50 mg/kg
quantity.kind: concentration at 1 h

molecule: C[C@@H]1C(NC(=O)c2cc3c(F)cc(F)cc3[nH]2)CC2C[C@@H]1C2(C)C (stereo partly shown)
quantity.kind: concentration at 1 h
observed: 1200 ng/mL

----------
test.method.notes: QTc (QTcV) prolongation in dogs after oral dosing, with plasma level at 1 hr
conditions: dog, plasma, po, 150 mg/kg

structure.smiles: CC1(C)CCC(NC(=O)c2cc3c(Cl)cc(Cl)cc3[nH]2)CC1
concentration at 1 h [ng/mL]: 300

----------
assay.target: hNav1.5 Late (Homo sapiens)
Sequence (Q14524 whole entry): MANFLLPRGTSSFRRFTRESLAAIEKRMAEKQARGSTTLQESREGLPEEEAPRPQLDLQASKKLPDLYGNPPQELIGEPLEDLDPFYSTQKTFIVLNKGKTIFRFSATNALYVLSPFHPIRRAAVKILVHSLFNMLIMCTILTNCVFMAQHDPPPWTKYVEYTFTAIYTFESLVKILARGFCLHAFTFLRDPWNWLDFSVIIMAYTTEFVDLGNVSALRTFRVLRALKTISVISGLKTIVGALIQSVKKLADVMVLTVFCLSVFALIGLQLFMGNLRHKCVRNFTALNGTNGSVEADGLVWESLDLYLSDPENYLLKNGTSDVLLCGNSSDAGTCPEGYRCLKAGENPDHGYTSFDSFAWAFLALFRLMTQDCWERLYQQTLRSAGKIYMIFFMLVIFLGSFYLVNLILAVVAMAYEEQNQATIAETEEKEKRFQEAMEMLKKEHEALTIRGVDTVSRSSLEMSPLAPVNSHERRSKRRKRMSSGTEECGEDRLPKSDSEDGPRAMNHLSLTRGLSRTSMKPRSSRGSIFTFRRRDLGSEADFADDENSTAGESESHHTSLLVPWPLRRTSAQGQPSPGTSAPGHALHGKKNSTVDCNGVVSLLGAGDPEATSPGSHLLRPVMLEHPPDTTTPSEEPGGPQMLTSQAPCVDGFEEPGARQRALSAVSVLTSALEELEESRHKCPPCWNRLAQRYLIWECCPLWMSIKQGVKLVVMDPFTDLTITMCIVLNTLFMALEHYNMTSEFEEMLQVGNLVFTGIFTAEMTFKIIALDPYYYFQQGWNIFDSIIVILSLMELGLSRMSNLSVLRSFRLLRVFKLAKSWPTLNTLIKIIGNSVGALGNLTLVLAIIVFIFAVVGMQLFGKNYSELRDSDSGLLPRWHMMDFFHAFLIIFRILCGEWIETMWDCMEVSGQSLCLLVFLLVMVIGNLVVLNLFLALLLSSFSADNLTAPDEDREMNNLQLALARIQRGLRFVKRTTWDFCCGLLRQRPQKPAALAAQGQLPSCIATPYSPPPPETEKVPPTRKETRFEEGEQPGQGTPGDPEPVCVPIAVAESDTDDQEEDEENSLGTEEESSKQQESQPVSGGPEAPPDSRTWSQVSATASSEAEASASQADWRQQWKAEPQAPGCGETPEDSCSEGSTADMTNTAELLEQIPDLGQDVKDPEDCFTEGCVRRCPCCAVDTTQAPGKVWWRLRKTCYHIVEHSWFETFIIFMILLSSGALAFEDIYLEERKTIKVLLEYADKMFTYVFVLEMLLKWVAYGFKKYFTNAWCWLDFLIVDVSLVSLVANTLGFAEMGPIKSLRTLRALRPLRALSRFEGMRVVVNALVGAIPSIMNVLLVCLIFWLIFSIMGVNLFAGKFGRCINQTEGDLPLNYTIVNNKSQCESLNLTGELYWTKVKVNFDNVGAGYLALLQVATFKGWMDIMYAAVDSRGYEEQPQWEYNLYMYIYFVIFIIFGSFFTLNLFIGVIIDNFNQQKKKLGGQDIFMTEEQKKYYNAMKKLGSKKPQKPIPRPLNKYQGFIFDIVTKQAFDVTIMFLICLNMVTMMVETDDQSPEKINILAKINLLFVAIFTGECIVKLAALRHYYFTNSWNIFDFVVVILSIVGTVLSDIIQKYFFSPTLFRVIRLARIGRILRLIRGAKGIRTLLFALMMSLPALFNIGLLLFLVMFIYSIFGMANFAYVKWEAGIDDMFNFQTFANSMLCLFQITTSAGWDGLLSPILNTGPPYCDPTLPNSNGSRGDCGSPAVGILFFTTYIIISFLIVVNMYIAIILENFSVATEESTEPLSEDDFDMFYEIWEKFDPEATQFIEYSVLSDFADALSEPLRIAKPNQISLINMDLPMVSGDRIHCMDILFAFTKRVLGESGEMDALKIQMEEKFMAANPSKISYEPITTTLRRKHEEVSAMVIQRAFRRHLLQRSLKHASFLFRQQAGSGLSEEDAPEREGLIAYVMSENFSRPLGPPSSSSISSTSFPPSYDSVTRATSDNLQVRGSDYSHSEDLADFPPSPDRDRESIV
test.method.notes: In vitro assessment of ion channels: hNav1.5 Late
Type: biochemical
conditions: read-out: hNav1.5 Late IC50
quantity.kind: IC50

structure.smiles: CC1(C)CCC(NC(=O)c2cc3c(F)cc(F)cc3[nH]2)CC1
observed: > 10 µM
